Target: FER (Homo sapiens)
Sequence (P16591 whole entry): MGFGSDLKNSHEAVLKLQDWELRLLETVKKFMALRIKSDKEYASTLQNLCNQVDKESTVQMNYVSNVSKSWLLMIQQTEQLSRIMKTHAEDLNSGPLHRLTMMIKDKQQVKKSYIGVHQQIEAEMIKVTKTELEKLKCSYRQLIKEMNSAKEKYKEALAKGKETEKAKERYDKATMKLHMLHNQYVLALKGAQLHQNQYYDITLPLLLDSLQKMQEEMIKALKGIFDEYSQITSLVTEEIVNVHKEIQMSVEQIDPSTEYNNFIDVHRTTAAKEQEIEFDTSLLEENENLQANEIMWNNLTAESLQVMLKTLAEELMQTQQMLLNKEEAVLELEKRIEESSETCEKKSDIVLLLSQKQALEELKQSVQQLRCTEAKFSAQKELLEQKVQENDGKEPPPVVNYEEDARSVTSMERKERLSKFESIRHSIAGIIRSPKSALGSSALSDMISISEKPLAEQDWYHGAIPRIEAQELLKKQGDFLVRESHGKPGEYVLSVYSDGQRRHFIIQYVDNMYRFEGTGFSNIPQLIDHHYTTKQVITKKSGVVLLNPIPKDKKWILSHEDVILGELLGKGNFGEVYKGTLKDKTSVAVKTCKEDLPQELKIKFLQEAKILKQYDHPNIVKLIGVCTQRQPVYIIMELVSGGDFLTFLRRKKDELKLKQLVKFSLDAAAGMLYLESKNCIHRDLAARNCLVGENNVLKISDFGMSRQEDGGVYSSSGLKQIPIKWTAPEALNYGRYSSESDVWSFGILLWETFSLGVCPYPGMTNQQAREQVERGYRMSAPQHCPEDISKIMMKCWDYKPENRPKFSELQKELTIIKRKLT
Assay: pY402-FER autophosphorylation immunoblot in HEK293FT cells transfected with pLV-FER, […] h
endpoint name: IC50 (nM)
Give just the number in nM; leave the unit off.

IN: Reported IC50 for COc1cc(N2CCC(N3CCN(C)CC3)CC2)ccc1Nc1ncc(Cl)c(Nc2ccccc2P(C)(C)=O)n1 : what is it?
OUT: 138
